Data provenance: the supplement of paper PMC10567573

B1: INTS3 (parent)
chain: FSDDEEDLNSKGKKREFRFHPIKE

# Variants of: B1
# TEST METHOD NOTES: protein stability index of a GFP-peptide fusion (GPS, HEK-293T) (PSI 1-6); higher = more stable;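 also: lentivirally expressed fusions sorted by FACS into six bins by GFP to DsRed ratio, PSI derived from sequencing read proportions per bin multiplied by bin number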
# TEST CONDITIONS: c terminus: a fixed tail appended
MEASURED PROPERTY: protein stability index
Answer field: number only, no words.

Example entries and their recorded answers appear below.
Can you share its protein stability index? I mean this variant: `K13S`
3.06

Also need `S10C` , thanks.
3.08

Also need `K23P` , thanks.
3.06

Also need `K13Y` , thanks.
3.02

For the next question, use this variant.
Can you share its protein stability index? I mean this variant: `L8V`
2.99
